Parameter IC50: see the listing below.
target: p-Akt1 in LNCaP cells (Homo sapiens, UniProt P31749); construct: SureFire assays to detect cellular p-Akt1, p-Akt2 and p-Akt3 levels in WM115 cells (Akt2/3) and LNCaP cells (Akt1); endogenous in cells; host or cells: LNCaP (ECACC 89110211); assay: Phospho-Akt cellular SureFire assay, p-Akt1 in LNCaP cells; type: cell-based; conditions: read-out: Biological Assay 2 IC50 (nM) Akt1 LNCaP
Sequence (P31749 whole entry): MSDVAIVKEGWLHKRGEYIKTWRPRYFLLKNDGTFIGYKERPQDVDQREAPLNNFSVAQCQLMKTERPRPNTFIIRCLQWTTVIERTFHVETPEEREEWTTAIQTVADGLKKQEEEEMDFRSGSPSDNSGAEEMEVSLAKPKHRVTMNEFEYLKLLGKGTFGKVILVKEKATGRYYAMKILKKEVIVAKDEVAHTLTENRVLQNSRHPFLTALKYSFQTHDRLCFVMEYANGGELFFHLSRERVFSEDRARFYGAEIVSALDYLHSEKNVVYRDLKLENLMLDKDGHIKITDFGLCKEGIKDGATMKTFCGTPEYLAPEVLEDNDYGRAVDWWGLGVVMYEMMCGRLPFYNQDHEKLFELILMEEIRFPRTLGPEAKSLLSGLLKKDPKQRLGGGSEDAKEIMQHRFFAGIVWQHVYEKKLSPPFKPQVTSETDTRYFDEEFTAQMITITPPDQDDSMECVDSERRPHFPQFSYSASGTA
measure: IC50

CC(=O)N(C(C)C)[C@H]1CC[C@H](CC(=O)Nc2cc(-c3ccccc3)c(-c3ccc([C@]4(N)C[C@](C)(O)C4)cc3)cn2)CC1
1800 nM
CC(C)(C)CC(=O)N[C@H]1CC[C@H](CC(=O)Nc2cnc(-c3ccc(C(C)(C)N)cc3)c(-c3ccccc3)c2)CC1
> 30000 nM
CC(C)C(=O)N(C)[C@H]1CC[C@H](CC(=O)Nc2cnc(-c3ccc([C@]4(N)C[C@](C)(O)C4)cc3)c(-c3ccccc3)c2)CC1
670 nM
CC(=O)N(C)[C@H]1CC[C@H](CC(=O)Nc2cc(-c3ccccc3)c(-c3ccc([C@]4(N)C[C@H](F)C4)cc3)cn2)CC1
9700 nM
CC(=O)N[C@H]1CC[C@H](CC(=O)Nc2cnc(-c3ccc(C(C)(C)N)cc3)c(-c3ccccc3)c2)CC1
> 30000 nM
CC(=O)N(C)[C@H]1CC[C@H](CC(=O)Nc2cc(-c3ccccc3F)c(-c3ccc(C4(N)CCC4)cc3)cn2)CC1
7100 nM

====

target: Akt3 (Homo sapiens, UniProt Q9Y243); construct: unspecified tag, removed (detagged) (cleaved yes); purchased SignalChem and Proteros (Akt3); Merck Millipore (PDK1) 14-452 (PDK1); none given for Akt3; assay: Akt activation assay (PDK1-mediated activation, LANCE Ultra crosstide TR-FRET), Akt3; type: biochemical; conditions: read-out: Biological Assay 1 IC50 (nM) Akt3
Sequence (Q9Y243 whole entry): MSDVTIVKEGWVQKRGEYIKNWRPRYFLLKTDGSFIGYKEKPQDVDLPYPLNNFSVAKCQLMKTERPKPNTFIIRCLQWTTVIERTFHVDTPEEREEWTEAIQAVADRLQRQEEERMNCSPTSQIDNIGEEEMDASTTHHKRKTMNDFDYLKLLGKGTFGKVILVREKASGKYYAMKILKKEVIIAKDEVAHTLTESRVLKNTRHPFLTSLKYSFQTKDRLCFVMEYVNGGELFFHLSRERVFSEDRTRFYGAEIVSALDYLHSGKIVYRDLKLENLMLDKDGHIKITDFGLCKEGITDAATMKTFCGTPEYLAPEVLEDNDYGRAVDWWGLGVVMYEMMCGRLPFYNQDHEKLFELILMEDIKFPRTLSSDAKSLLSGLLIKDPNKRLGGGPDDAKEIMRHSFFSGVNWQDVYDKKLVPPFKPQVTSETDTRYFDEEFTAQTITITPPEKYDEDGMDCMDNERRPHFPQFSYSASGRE
measure: IC50 (nM)

CC(C)C(=O)N(C)[C@H]1CC[C@H](CC(=O)Nc2cc(-c3ccccc3)c(-c3ccc([C@]4(N)C[C@](C)(O)C4)cc3)nn2)CC1
4
CC(=O)N(C)[C@H]1CC[C@H](CC(=O)Nc2cc(-c3ccccn3)c(-c3ccc(C4(N)CCC4)cc3)cn2)CC1
1000
NC1(c2ccc(-c3cnc(NC(=O)C[C@H]4CC[C@H](N5CCOC5=O)CC4)cc3-c3ccccc3)cc2)CC1
42
COC(=O)N(C)[C@H]1CC[C@H](CC(=O)Nc2cc(-c3ccccn3)c(-c3ccc(C4(N)CC4)cc3)cn2)CC1
1400
CC(=O)N(C)[C@H]1CC[C@H](CC(=O)Nc2cc(-c3ccccc3)c(-c3ccc([C@]4(N)C[C@](C)(O)C4)cc3)nn2)CC1
7
CC(C)OC(=O)N(C)[C@H]1CC[C@H](CC(=O)Nc2cc(-c3ccccc3)c(-c3ccc([C@]4(N)C[C@](C)(O)C4)cc3)cn2)CC1
22
COCC(=O)N(C)[C@H]1CC[C@H](CC(=O)Nc2cc(-c3ccccc3)c(-c3ccc([C@]4(N)C[C@](C)(O)C4)cc3)cn2)CC1
9
CCN(C(C)=O)[C@H]1CC[C@H](CC(=O)Nc2cc(-c3ccccc3)c(-c3ccc([C@]4(N)C[C@](C)(O)C4)cc3)nn2)CC1
8
CC(=O)N(C)[C@H]1CC[C@H](CC(=O)Nc2cnc(-c3ccc(C(C)(C)N)nc3)c(-c3ccccc3)c2)CC1
1100
CN(C)C(=O)[C@H]1CC[C@H](CC(=O)Nc2cnc(-c3ccc(C(C)(C)N)cc3)c(-c3ccccc3)c2)CC1
1600
COC(=O)N(C)[C@H]1CC[C@H](CC(=O)Nc2cnc(-c3ccc(C(C)(C)N)cc3)c(-c3ccccc3)c2)CC1
380
CC(=O)N[C@H]1CC[C@H](CC(=O)Nc2cnc(-c3ccc([C@@H](C)N)cc3)c(-c3ccccc3)c2)CC1
80
CCOC(=O)N(C)[C@H]1CC[C@H](CC(=O)Nc2cc(-c3ccccc3)c(-c3ccc([C@]4(N)C[C@](C)(O)C4)cc3)nn2)CC1
4
